Entries below carry reported IC50 on Cls (Homo sapiens, UniProt P09871).
Sequence (P09871 438-688 limits assumed): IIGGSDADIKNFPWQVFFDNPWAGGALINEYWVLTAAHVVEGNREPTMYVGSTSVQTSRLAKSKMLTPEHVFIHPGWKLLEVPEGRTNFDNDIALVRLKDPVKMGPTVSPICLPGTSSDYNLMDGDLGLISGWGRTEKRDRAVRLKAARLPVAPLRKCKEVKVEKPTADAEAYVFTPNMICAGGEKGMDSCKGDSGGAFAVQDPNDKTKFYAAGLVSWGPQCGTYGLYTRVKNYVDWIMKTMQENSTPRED
Sequence (P09871 16-437 limits assumed): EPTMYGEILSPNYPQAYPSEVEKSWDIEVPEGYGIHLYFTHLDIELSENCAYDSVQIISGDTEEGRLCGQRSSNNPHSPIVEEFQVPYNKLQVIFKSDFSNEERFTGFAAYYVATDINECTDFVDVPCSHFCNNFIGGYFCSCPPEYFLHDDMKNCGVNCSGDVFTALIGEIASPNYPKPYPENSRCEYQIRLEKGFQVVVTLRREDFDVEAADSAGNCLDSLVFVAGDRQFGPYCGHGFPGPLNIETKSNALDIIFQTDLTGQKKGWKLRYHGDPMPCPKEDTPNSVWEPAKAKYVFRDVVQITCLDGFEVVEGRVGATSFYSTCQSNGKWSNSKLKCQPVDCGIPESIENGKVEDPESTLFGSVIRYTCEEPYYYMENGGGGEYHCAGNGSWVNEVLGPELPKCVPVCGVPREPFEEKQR
Write down the numeric answer in nM and omit the unit.

> print(dat)
                                   compound                       target.entity  numeric.value
1  N=C(N)c1ccc(OC(=O)c2ccc(CN)cc2)c([N+](=O)[O-])c1 [Compound 62]  Cls (Homo sapiens, UniProt P09871)            600
2  N=C(N)c1ccc(OC(=O)c2ccc(CNC(=O)OCc3ccccc3)cc2)c([N+](=O)[O-])c1 [Compound 61]  Cls (Homo sapiens, UniProt P09871)            300

Look up IC50: COC(=O)c1cc(C(=N)N)ccc1OC(=O)c1ccc(CN)cc1 [Compound 60]
800

Param item: N=C(N)c1ccc(OC(=O)c2ccccc2)c(NC(=O)c2ccccc2)c1 [Compound 30, 4-amidino-2-benzoylaminophenyl benzoate]
300

Param item: N=C(N)c1cc(Br)c(OC(=O)c2ccc3c(c2)OCO3)c(Br)c1 [Compound 47]
30

Param item: N=C(N)c1ccc(OC(=O)c2ccccc2)c(C(=O)O)c1 [Compound 24, 4-amidino-2-carboxyphenyl benzoate]
2000

Param item: CCC(=Cc1ccc(NC(=N)N)cc1)C(=O)Oc1ccc(C(=N)N)cc1C(=O)c1ccccc1 [Compound 74]
3000

Param item: CC(C)(C)c1ccc(C(=O)Oc2ccc(C(=N)N)cc2C(=O)c2ccccc2)cc1 [Compound 39]
200

Param item: COC(=O)c1cc(C(=N)N)ccc1OC(=O)c1ccc(F)cc1 [Compound 84]
400

Param item: COC(=O)c1cc(C(=N)N)ccc1OC(=O)c1ccc(C=O)cc1 [Compound 51]
3000

Param item: N=C(N)c1ccc(OC(=O)CCCCCNC(=O)OCc2ccccc2)c(C(=O)c2ccccc2)c1 [Compound 12]
5000

Param item: N=C(N)c1ccc(OC(=O)c2ccc(O)cc2)c(C(=O)c2ccccc2)c1 [Compound 46]
90

Param item: N=C(N)c1ccc(OC(=O)c2ccc(OCc3ccccc3)cc2)c(C(=O)c2ccccc2)c1 [Compound 45]
400

---

Tested on: complement
Experiment: Inhibition of complement mediated hemolysis
Type: cell-based
Details: compound at 1 × 10^-6
Lab note: compare Inhibition of complement mediated hemolysis (%) with 4%, writing TRUE if less and FALSE if equal or more.

Study these solved cases before continuing.
> print(dat)
                                   compound  target.entity  group.label
1  N=C(N)c1ccc(OC(=O)CCNC(=O)OCc2ccccc2)c(C(=O)c2ccccc2)c1 [Compound 10]     complement        FALSE
2  COC(=O)c1cc(C(=N)N)ccc1OC(=O)[C@H]1CC[C@H](CN)CC1 [Compound 19]     complement        FALSE
3  COc1cc(C(=N)N)ccc1OC(=O)c1ccc(CNC(=O)OCc2ccccc2)cc1 [Compound 57]     complement         TRUE
4  N=C(N)c1ccc(OC(=O)c2ccccc2)c(C(=O)c2ccccc2)c1 [Compound 29, 4-amidino-2-benzoylphenyl benzoate]     complement        FALSE

Identify whether the compound COC(=O)c1cc(C(=N)N)ccc1OC(=O)c1ccc(CN)cc1 [Compound 60] records Inhibition of complement mediated hemolysis (%) below 4%.
FALSE

Param item: CC(=O)Nc1ccc(C(=O)Oc2ccc(C(=N)N)cc2C(=O)c2ccccc2)cc1 [Compound 56]
FALSE

Param item: CCC(=Cc1ccc(NC(=N)N)cc1)C(=O)Oc1ccc(C(=N)N)cc1C(=O)c1ccccc1 [Compound 74]
TRUE
